Data origin, for the record: PubChem BioAssay (NCI)

Measured growth accompanies every entry in the list below.
Test system: ACHN renal
Experiment notes: NCI-60 one-dose screen, 48 h (100 = growth as untreated, 0 = no growth, -100 = all killed)
Setup conditions: 10 µM unless noted
Protocol: Growth inhibition of the ACHN human tumor cell line is measured as a screen for anti-cancer activity. Cells are grown in 96 well plates and exposed to the test compound for 48 hours. Compounds are tested at a single concentration, which is 10^-5 M for most compounds. The reported endpoint is percent growth (GI% or GIPRCNT), where numbers from 0 - 100% represent growth inhibition, and numbers from -100% - 0 represent cell death. For example, a value of 40 represents 60% growth inhibition. […]
Compounds without any hit were thinned out: in the full panel of roughly 83,000, 20% have a hit.
Measured endpoint: growth (%)

- CS(=O)(=O)c1ccc(NC(=O)c2ccccc2)nc1: 111
- Nc1nc(N)c2c(n1)NC(c1cccc(Nc3ccnc4cc(C(F)(F)F)ccc34)c1)CC(c1ccccc1)=N2 (centres undefined): 75.8
- COc1cc(/C=C/C(=O)/C=C(O)/C=C/c2ccc(OC(=O)C34CC5CC(CC(C5)C3)C4)c(OC)c2)ccc1OC(=O)C12CC3CC(CC(C3)C1)C2: 99
- S=c1[nH]c(=S)c2c(-c3ccccc3)c(-c3ccccc3)oc2[nH]1: 106
